Tested on: IGROV1 complex spheroids (HUVEC, MSC), viability % test/control
Assay: Anticancer human tumor IGROV1 cell line growth inhibition [GQUAD];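 also: spheroids exposed to compounds for 7 days before readout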;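 as to viability, T/C: 100% = DMSO vehicle control viability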
Settings: second compound 0.316 µM; first compound 0.316 µM; stronger effect = lower value
Labelling field: enter true (1) if recorded viability, T/C is less than 20%. Enter false (0) if it equals or exceeds that cut-off.

Worked examples follow.
CC1COCCN1c1cc(C2(S(C)(=N)=O)CC2)nc(-c2ccnc3[nH]ccc23)n1 (configuration not stated) + CN(C)c1ccc(Nc2c3ccc(NC(=O)CCN4CCCC4)cc3nc3cc(NC(=O)CCN4CCCC4)ccc23)cc1
false (0)
CC[C@@]1(O)C(=O)OCc2c1cc1n(c2=O)Cc2cc3c(CN(C)C)c(O)ccc3nc2-1 + CN(C)c1ccc(Nc2c3ccc(NC(=O)CCN4CCCC4)cc3nc3cc(NC(=O)CCN4CCCC4)ccc23)cc1
true (1)

# strict comparison: is reported viability, T/C < 20%? input = C=CC(=O)N1CCN(c2nc(=O)n(-c3c(C)ccnc3C(C)C)c3nc(-c4c(O)cccc4F)c(F)cc23)C(C)C1 (configuration not stated) + Cc1cnc(CNC(=O)c2c(=O)c3ccc(N4CCCN(C)CC4)nc3n3c2sc2ccccc23)cn1
false (0)

# strict comparison: is reported viability, T/C < 20%? input = CC(C)(O)C1CCC(Nc2ccc3ncc(-c4cccc(C(F)(F)F)c4)n3n2)CC1 (configuration not stated) + Cc1cnc(CNC(=O)c2c(=O)c3ccc(N4CCCN(C)CC4)nc3n3c2sc2ccccc23)cn1
true (1)

# strict comparison: is reported viability, T/C < 20%? input = O=C(NO)c1cnc(N2CCN(S(=O)(=O)c3ccc4ccccc4c3)CC2)nc1 + Cc1cnc(CNC(=O)c2c(=O)c3ccc(N4CCCN(C)CC4)nc3n3c2sc2ccccc23)cn1
true (1)

# strict comparison: is reported viability, T/C < 20%? input = CC[C@@]1(O)C(=O)OCc2c1cc1n(c2=O)Cc2cc3c(CN(C)C)c(O)ccc3nc2-1 + Cc1[nH]c2ccc(F)cc2c1-c1nc2c3cccnc3c3ncccc3c2[nH]1
true (1)

# strict comparison: is reported viability, T/C < 20%? input = CC1COCCN1c1cc(C2(O)CC3CCC(C2)O3)c2cnn(-c3ccn[nH]3)c2n1 (configuration not stated) + Cc1cnc(CNC(=O)c2c(=O)c3ccc(N4CCCN(C)CC4)nc3n3c2sc2ccccc23)cn1
true (1)

====

Tested on: IGROV1 complex spheroids (HUVEC, MSC), viability % test/control
Experiment: Anticancer human tumor IGROV1 cell line growth inhibition [GQUAD];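 also: spheroids exposed to compounds for 7 days before readout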
Settings: curve of first compound; second compound 0.0316 µM
reportedMetric: pIC50
Answers are plain numbers, as −log10 of the molar value.

Study these solved cases before continuing.
COc1ccc([C@@H](O)c2cc(-c3ncnc4cc(N5CCOCC5)ccc34)c(F)cc2Cl)nn1 + Cc1cnc(CNC(=O)c2c(=O)c3ccc(N4CCCN(C)CC4)nc3n3c2sc2ccccc23)cn1
6.71
O=C(NO)c1cnc(N2CCN(S(=O)(=O)c3ccc4ccccc4c3)CC2)nc1 + CN(C)c1ccc(Nc2c3ccc(NC(=O)CCN4CCCC4)cc3nc3cc(NC(=O)CCN4CCCC4)ccc23)cc1
7.22

Now examine the next entry.
Reported pIC50 for CCc1c2c(nc3ccc(O)cc13)-c1cc3c(c(=O)n1C2)COC(=O)[C@]3(O)CC + Cc1[nH]c2ccc(F)cc2c1-c1nc2c3cccnc3c3ncccc3c2[nH]1 : what is it?
8.91

====

Provide the reported viability, T/C of each item.
Tested on: IGROV1 complex spheroids (HUVEC, MSC), viability % test/control
Assay: Anticancer human tumor IGROV1 cell line growth inhibition [GQUAD];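 also: spheroids exposed to compounds for 7 days before readout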;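 as to viability, T/C: 100% = DMSO vehicle control viability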
Conditions: second compound 3.16 µM; first compound 3.16 µM; stronger effect = lower value
Numbers only, in %.

CC(C)n1c(=O)n(C)c2cnc3cc(F)c(-c4ccc(OCCCN5CCCCC5)nc4)cc3c21 + Cc1[nH]c2ccc(F)cc2c1-c1nc2c3cccnc3c3ncccc3c2[nH]1
4.75

Reported viability, T/C for CC(=O)O[C@H]1C(=O)[C@@]2(C)[C@H]([C@H](OC(=O)c3ccccc3)[C@]3(O)C[C@H](OC(=O)[C@H](O)[C@@H](NC(=O)c4ccccc4)c4ccccc4)C(C)=C1C3(C)C)[C@]1(OC(C)=O)CO[C@@H]1C[C@@H]2O + Cc1[nH]c2ccc(F)cc2c1-c1nc2c3cccnc3c3ncccc3c2[nH]1 : what is it?
2.28

====

System: IGROV1 complex spheroids (HUVEC, MSC), viability % test/control
Assay: Anticancer human tumor IGROV1 cell line growth inhibition [GQUAD];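 also: spheroids exposed to compounds for 7 days before readout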;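 as to viability, T/C: 100% = DMSO vehicle control viability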
Settings: second compound 0.316 µM; first compound 0.0316 µM; stronger effect = lower value
Provide the reported viability, T/C of each item.

Would you be so kind as to report viability, T/C for each listed record?
1. C#Cc1c(F)ccc2cc(O)cc(-c3ncc4c(N5CC6CCC(C5)N6)nc(OCC56CCCN5CC(F)C6)nc4c3F)c12 (stereo not drawn) + CN(C)c1ccc(Nc2c3ccc(NC(=O)CCN4CCCC4)cc3nc3cc(NC(=O)CCN4CCCC4)ccc23)cc1
2. CC(C)(O)C1CCC(Nc2ccc3ncc(-c4cccc(C(F)(F)F)c4)n3n2)CC1 (stereo not drawn) + Cc1[nH]c2ccc(F)cc2c1-c1nc2c3cccnc3c3ncccc3c2[nH]1
3. COc1ccc([C@@H](O)c2cc(-c3ncnc4cc(N5CCOCC5)ccc34)c(F)cc2Cl)nn1 + Cc1cnc(CNC(=O)c2c(=O)c3ccc(N4CCCN(C)CC4)nc3n3c2sc2ccccc23)cn1

["87.8%", "69.6%", "25.7%"]

====

System: IGROV1 complex spheroids (HUVEC, MSC), viability % test/control
Test: Anticancer human tumor IGROV1 cell line growth inhibition [GQUAD]; active = viability on the fitted dose curve at most 10% of control; inactive = the rest;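 also: spheroids exposed to compounds for 7 days before readout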
Conditions: second compound 0.316 µM; first compound 0.316 µM
A correct response names exactly one class from t (active), f (inactive)

Worked examples follow.
Cn1ncnc1[C@H]1c2n[nH]c(=O)c3cc(F)cc(c23)N[C@@H]1c1ccc(F)cc1 + CN(C)c1ccc(Nc2c3ccc(NC(=O)CCN4CCCC4)cc3nc3cc(NC(=O)CCN4CCCC4)ccc23)cc1
f
CC(C)n1c(=O)n(C)c2cnc3cc(F)c(-c4ccc(OCCCN5CCCCC5)nc4)cc3c21 + Cc1cnc(CNC(=O)c2c(=O)c3ccc(N4CCCN(C)CC4)nc3n3c2sc2ccccc23)cn1
f

Outcome logged for O=C(NO)c1cnc(N2CCN(S(=O)(=O)c3ccc4ccccc4c3)CC2)nc1 + CN(C)c1ccc(Nc2c3ccc(NC(=O)CCN4CCCC4)cc3nc3cc(NC(=O)CCN4CCCC4)ccc23)cc1 in this assay:
t

Outcome logged for CC1COCCN1c1cc(-c2ccnn2C)c2ccnc(-c3ccn[nH]3)c2n1 (stereo not given) + Cc1cnc(CNC(=O)c2c(=O)c3ccc(N4CCCN(C)CC4)nc3n3c2sc2ccccc23)cn1 in this assay:
t

Outcome logged for CC1COCCN1c1cc(-c2ccnn2C)c2ccnc(-c3ccn[nH]3)c2n1 (stereo not given) + Cc1[nH]c2ccc(F)cc2c1-c1nc2c3cccnc3c3ncccc3c2[nH]1 in this assay:
t

====

Test system: IGROV1 complex spheroids (HUVEC, MSC), viability % test/control
Test: Anticancer human tumor IGROV1 cell line growth inhibition [GQUAD];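 also: spheroids exposed to compounds for 7 days before readout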;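 as to viability, T/C: 100% = DMSO vehicle control viability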
Settings: second compound 0.0316 µM; first compound 0.316 µM; stronger effect = lower value
Text: DNA G-quadruplex Stabilizer Agents in Combinations in Complex Spheroids A high-throughput screen of multi-cell type tumor spheroids was designed to identify active combinations of DNA G-quadruplex stabilizer agents and targeted small molecules. […] Compounds. […] If the clinical Cmax for an agent had not been determined, the highest concentration tested was 10 microM. […]
Provide the reported viability, T/C of each item.
Answers are plain numbers, in %.

Study these solved cases before continuing.
O=C(NO)c1cnc(N2CCN(S(=O)(=O)c3ccc4ccccc4c3)CC2)nc1 + Cc1cnc(CNC(=O)c2c(=O)c3ccc(N4CCCN(C)CC4)nc3n3c2sc2ccccc23)cn1
4.13
C=CC(=O)N1CCN(c2nc(=O)n(-c3c(C)ccnc3C(C)C)c3nc(-c4c(O)cccc4F)c(F)cc23)C(C)C1 (stereo not drawn) + Cc1[nH]c2ccc(F)cc2c1-c1nc2c3cccnc3c3ncccc3c2[nH]1
103

Now examine the next entry.
Reported viability, T/C for CC(C)n1c(=O)n(C)c2cnc3cc(F)c(-c4ccc(OCCCN5CCCCC5)nc4)cc3c21 + CN(C)c1ccc(Nc2c3ccc(NC(=O)CCN4CCCC4)cc3nc3cc(NC(=O)CCN4CCCC4)ccc23)cc1 : what is it?
90.8

====

Tested on: IGROV1 complex spheroids (HUVEC, MSC), viability % test/control
Assay: Anticancer human tumor IGROV1 cell line growth inhibition [GQUAD]; active means viability on the fitted dose curve at most 10% of control; inactive means the rest;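 also: spheroids exposed to compounds for 7 days before readout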
Details: second compound 10 µM; first compound 0.1 µM
A correct response names exactly one class from active, inactive

Worked examples follow.
CC1COCCN1c1cc(C2(O)CC3CCC(C2)O3)c2cnn(-c3ccn[nH]3)c2n1 (stereo unspecified) + Cc1cnc(CNC(=O)c2c(=O)c3ccc(N4CCCN(C)CC4)nc3n3c2sc2ccccc23)cn1
active
COc1cccc2c1C(=O)c1c(O)c3c(c(O)c1C2=O)CC(O)(C(=O)CO)CC3OC1CC(N)C(O)C(C)O1 (stereo unspecified) + CN(C)c1ccc(Nc2c3ccc(NC(=O)CCN4CCCC4)cc3nc3cc(NC(=O)CCN4CCCC4)ccc23)cc1
inactive
COc1cccc2c1C(=O)c1c(O)c3c(c(O)c1C2=O)CC(O)(C(=O)CO)CC3OC1CC(N)C(O)C(C)O1 (stereo unspecified) + Cc1cnc(CNC(=O)c2c(=O)c3ccc(N4CCCN(C)CC4)nc3n3c2sc2ccccc23)cn1
active
O=c1[nH]cc(F)c(=O)[nH]1 + Cc1cnc(CNC(=O)c2c(=O)c3ccc(N4CCCN(C)CC4)nc3n3c2sc2ccccc23)cn1
active
CC(=O)O[C@H]1C(=O)[C@@]2(C)[C@H]([C@H](OC(=O)c3ccccc3)[C@]3(O)C[C@H](OC(=O)[C@H](O)[C@@H](NC(=O)c4ccccc4)c4ccccc4)C(C)=C1C3(C)C)[C@]1(OC(C)=O)CO[C@@H]1C[C@@H]2O + Cc1cnc(CNC(=O)c2c(=O)c3ccc(N4CCCN(C)CC4)nc3n3c2sc2ccccc23)cn1
active

Outcome logged for CCCS(=O)(=O)Nc1ccc(F)c(C(=O)c2c[nH]c3ncc(-c4ccc(Cl)cc4)cc23)c1F + Cc1[nH]c2ccc(F)cc2c1-c1nc2c3cccnc3c3ncccc3c2[nH]1 in this assay:
active
